# test target: RhoGDIα (Homo sapiens, UniProt P52565)
# Format: binding
# conditions used: read-out: Halothane Binding KI; 0.2 mM halothane, calculated using Eq. 3
pKi: −log10 of the molar value.

substance smiles	test target	pKi
CCO	RhoGDIα (Homo sapiens, UniProt P52565)	1.38
CCCCO	RhoGDIα (Homo sapiens, UniProt P52565)	2.38
CCCO	RhoGDIα (Homo sapiens, UniProt P52565)	1.70

* * *

# test target: RhoGDIα (Homo sapiens, UniProt P52565)
# Format: binding

compound	Kd / µM
FC(F)(F)C(Cl)Br (stereo not shown)	147

* * *

# test target: RhoGDIα (Homo sapiens, UniProt P52565)
# Sequence (P52565 1-204): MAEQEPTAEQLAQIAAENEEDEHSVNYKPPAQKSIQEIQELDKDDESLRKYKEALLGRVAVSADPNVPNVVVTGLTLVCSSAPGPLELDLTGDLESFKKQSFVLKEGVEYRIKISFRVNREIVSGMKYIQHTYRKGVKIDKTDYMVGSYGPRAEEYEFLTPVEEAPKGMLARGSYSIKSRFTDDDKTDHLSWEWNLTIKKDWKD
# Assay type: binding
# conditions used: read-out: EC50 for displacement of halothane; 0.5 mM halothane

substance smiles	EC50 [mM]
CCCCO	22
